# Target Or Test System: unphosphorylated VEGF-R2D50 (FLVK), cytosolic domain of human VEGF-R2 (Homo sapiens, UniProt P35968, DEL940-989/E990V)
# Construct: VEGF-R2D50 contains residues 806–939 and 990–1171
# Sequence (P35968 with tags, fused parts or gaps DEL940-989/E990V limits assumed): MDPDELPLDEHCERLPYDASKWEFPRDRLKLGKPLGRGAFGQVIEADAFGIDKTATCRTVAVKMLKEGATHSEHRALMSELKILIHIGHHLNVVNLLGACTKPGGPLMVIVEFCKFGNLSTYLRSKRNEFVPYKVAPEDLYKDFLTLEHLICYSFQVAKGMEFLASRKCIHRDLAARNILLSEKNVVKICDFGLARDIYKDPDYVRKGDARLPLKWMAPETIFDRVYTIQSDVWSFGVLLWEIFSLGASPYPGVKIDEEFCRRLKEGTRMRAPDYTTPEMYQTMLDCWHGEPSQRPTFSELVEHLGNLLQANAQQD
# Assay Remarks: VEGF-R2 coupled spectrophotometric assay (FLVK)
Measurement Label: Ki

Take a look at these entries with their results.
Cc1cc(C)nc(NC(=O)Cc2ccc(Oc3ccnc4cc(-c5nccn5C)sc34)cc2)c1 < 1 nM
CNC(=O)C1(c2ccc(Oc3ccnc4cc(C(=O)N5CC[C@@H](O)C5)sc34)cc2)CC1 > 10 nM

Here is another compound to look at.
Which Ki value is on record for `Cc1cccnc1NC(=O)Cc1ccc(Oc2ccnc3cc(C(=O)N4CCC4)sc23)cc1` ?
> 10 nM

* * *

# Target Or Test System: FGF-R1 intracellular kinase domain (Homo sapiens, UniProt P11362, C488A/C584S/L457V)
# Construct: starting from the endogenous methionine residue 456 to glutamate 766; made in house; host or cells: baculovirus vector expression system
# Sequence (P11362 456-766 L457V/C488A/C584S): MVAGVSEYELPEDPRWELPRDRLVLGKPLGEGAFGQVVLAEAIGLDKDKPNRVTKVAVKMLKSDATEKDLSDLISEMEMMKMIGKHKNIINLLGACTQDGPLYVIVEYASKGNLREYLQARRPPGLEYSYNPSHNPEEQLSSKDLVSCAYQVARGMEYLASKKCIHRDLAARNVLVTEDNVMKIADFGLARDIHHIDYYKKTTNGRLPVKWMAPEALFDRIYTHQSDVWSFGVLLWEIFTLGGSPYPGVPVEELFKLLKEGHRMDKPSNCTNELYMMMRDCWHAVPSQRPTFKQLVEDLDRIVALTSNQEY
# Assay Remarks: FGF-R spectrophotometric assay
# Format: biochemical
# Experimental Setup: 50 nM test compound; read-out: FGF-P (% inh @ 50 nM)
# Excerpt: The intracellular kinase domain of human FGF-R1 was expressed using the baculovirus vector expression system starting from the endogenous methionine residue 456 to glutamate 766, according to the residue numbering system of Mohammadi et al., Mol. Cell. Biol., 16, 977–989 (1996). In addition, the construct also has the following 3 amino acid substitutions: L457V, C488A, and C584S. […]
Measurement Label: inhibition at 0.05 µM

Take a look at these entries with their results.
Compound	Target Or Test System	inhibition at 0.05 µM
CNC(=O)C(O)c1ccc(Oc2ccnc3cc(-c4nccn4C)sc23)cc1Cl (centres unmarked)	FGF-R1 intracellular kinase domain (Homo sapiens, UniProt P11362, C488A/C584S/L457V)	0 to 5%
Cn1ccnc1-c1cc2nccc(Oc3ccc(CC(=O)Nc4ccc(C(F)(F)F)cn4)cc3)c2s1	FGF-R1 intracellular kinase domain (Homo sapiens, UniProt P11362, C488A/C584S/L457V)	5 to 10%
Cc1ccnc(NC(=O)Cc2ccc(Oc3ccnc4cc(-c5nccn5C)sc34)cc2)c1	FGF-R1 intracellular kinase domain (Homo sapiens, UniProt P11362, C488A/C584S/L457V)	0 to 5%
Cn1ccnc1-c1cc2nccc(Oc3ccc(CC(=O)Nc4ccc(Cl)cn4)cc3)c2s1	FGF-R1 intracellular kinase domain (Homo sapiens, UniProt P11362, C488A/C584S/L457V)	0 to 5%
O=C(Cc1ccc(Oc2ccnc3cc(C(=O)N4CCC4)sc23)cc1)Nc1ccc(C(F)(F)F)cn1	FGF-R1 intracellular kinase domain (Homo sapiens, UniProt P11362, C488A/C584S/L457V)	0 to 5%

Which inhibition at 0.05 µM value is on record for `O=C(Cc1ccc(Oc2ccnc3cc(C(=O)N4CCC4)sc23)cc1)Nc1nccc2ccccc12` ?
0 to 5%

Please answer likewise for `Cn1ccnc1-c1cc2nccc(Oc3ccc(CC(=O)NCc4cccc(F)c4)c(Cl)c3)c2s1`
0 to 5%

Please answer likewise for `O=C(Cc1ccc(Oc2ccnc3cc(C(=O)N4CC[C@@H](O)C4)sc23)cc1)Nc1cc2ccccc2cn1`
> 10%

* * *

# Target Or Test System: unphosphorylated VEGF-R2D50 (FLVK), cytosolic domain of human VEGF-R2 (Homo sapiens, UniProt P35968, DEL940-989/E990V)
# Construct: VEGF-R2D50 contains residues 806–939 and 990–1171
# Assay Remarks: VEGF-R2 coupled spectrophotometric assay (FLVK)
pKi: −log10 of the molar value.
Measurement Label: pKi

Molecule	Reported
Cc1cc(NC(=O)C(O)c2ccc(Oc3ccnc4cc(C(=O)N5CCC5)sc34)cc2)on1 (stereo not drawn) [Example 80]	< 8.00

Which pKi value is on record for O=C(Cc1ccc(Oc2ccnc3cc(C(=O)N4CC[C@@H](O)C4)sc23)cc1)Nc1ccccc1 [Example 20] ?
8.00 to 9.00

Please answer likewise for O=C(Cc1ccc(Oc2ccnc3cc(C(=O)N4CC[C@@H](O)C4)sc23)cc1)Nc1cc2ccccc2cn1 [Example 17]
> 9.00

Please answer likewise for Cc1cc(C)nc(NC(=O)Cc2ccc(Oc3ccnc4cc(C(=O)N5CC[C@@H](N(C)C)C5)sc34)cc2)c1 [Example 4]
> 9.00

Please answer likewise for O=C(Cc1ccc(Oc2ccnc3cc(C(=O)N4CC[C@@H](O)C4)sc23)cc1)Nc1ccc(Cl)cn1 [Example 16]
8.00 to 9.00

Please answer likewise for O=C(Cc1ccc(Oc2ccnc3cc(C(=O)N4CCC4)sc23)cc1Cl)Nc1ccc(Cl)cn1 [Example 50]
8.00 to 9.00

Please answer likewise for O=C(Cc1ccc(Oc2ccnc3cc(C(=O)N4CCC4)sc23)cc1)Nc1ccc(Br)cn1 [Example 30]
> 9.00

Please answer likewise for Cc1ccnc(NC(=O)Cc2ccc(Oc3ccnc4cc(-c5nccn5C)sc34)cc2)c1 [Example 11]
> 9.00

Please answer likewise for O=C(Cc1ccc(Oc2ccnc3cc(C(=O)N4CCC4)sc23)cc1)Nc1cc[nH]n1 [Example 40]
< 8.00

Please answer likewise for COC(C(=O)Nc1ccccn1)c1ccc(Oc2ccnc3cc(C(=O)N4CCC4)sc23)cc1 (stereo not drawn) [Example 83]
< 8.00
